This collection of values is drawn from ChEMBL document CHEMBL5058577.

Tested on: U2OS
Test Protocol: Multiplex assay against U2OS
Assay type: toxicity, cell-based
Test Settings: human, 12 h, 10 µM, compound concentration 10 uM, replicate 2
Population Apoptotic (%) overview
Measure Name: Population Apoptotic (%)

[[record]]
compound = "Cl.Cl.OCCOCCN1CCN(C(c2ccccc2)c2ccc(Cl)cc2)CC1 (stereo not given) [HYDROXYZINE HYDROCHLORIDE]"
assay_target = "U2OS"
measure_name = "Population Apoptotic (%)"
experimental_value = "88%"

[[record]]
compound = "O=c1ccc2ccc(OCCCCN3CCN(c4cccc5sccc45)CC3)cc2[nH]1 [BREXPIPRAZOLE]"
assay_target = "U2OS"
measure_name = "Population Apoptotic (%)"
experimental_value = "82%"

[[record]]
compound = "CCCCC[C@H](O)/C=C/[C@H]1[C@H](O)CC(=O)[C@@H]1CCCCCCC(=O)O [ALPROSTADIL]"
assay_target = "U2OS"
measure_name = "Population Apoptotic (%)"
experimental_value = "77%"

[[record]]
compound = "OCCCNc1cc(-c2ccnc(Nc3cccc(Cl)c3)n2)ccn1"
assay_target = "U2OS"
measure_name = "Population Apoptotic (%)"
experimental_value = "91%"

[[record]]
compound = "O=c1nc2[nH]c3ccccc3nc-2c(=O)[nH]1 [ALLOXAZINE]"
assay_target = "U2OS"
measure_name = "Population Apoptotic (%)"
experimental_value = "88%"

[[record]]
compound = "CCC(=O)OCC(=O)[C@@]1(OC(=O)CC)[C@@H](C)C[C@H]2[C@@H]3CCC4=CC(=O)C=C[C@]4(C)[C@@]3(Cl)[C@@H](O)C[C@@]21C [BECLOMETHASONE DIPROPIONATE]"
assay_target = "U2OS"
measure_name = "Population Apoptotic (%)"
experimental_value = "68%"

[[record]]
compound = "COC(c1ccccc1)(c1ccccc1)[C@H](Oc1nc(C)cc(C)n1)C(=O)O [AMBRISENTAN]"
assay_target = "U2OS"
measure_name = "Population Apoptotic (%)"
experimental_value = "100%"

[[record]]
compound = "C[C@@H]1CC(=O)Nc2cccc(-c3ccc4c(c3)c(-c3cnn(C)c3)nn4C)c2N1"
assay_target = "U2OS"
measure_name = "Population Apoptotic (%)"
experimental_value = "33%"

[[record]]
compound = "COCCCN1CCC(NC(=O)c2cc(Cl)c(N)c3c2OCC3)CC1 [PRUCALOPRIDE]"
assay_target = "U2OS"
measure_name = "Population Apoptotic (%)"
experimental_value = "47%"

[[record]]
compound = "Cc1ccc(OCC(O)C(C)NC(C)C)c2c1CCC2.Cl (stereo not given)"
assay_target = "U2OS"
measure_name = "Population Apoptotic (%)"
experimental_value = "80%"

[[record]]
compound = "COCCn1c(C)c(C)s/c1=N\\C(=O)C1C(C)(C)C1(C)C"
assay_target = "U2OS"
measure_name = "Population Apoptotic (%)"
experimental_value = "80%"

[[record]]
compound = "CCc1nn2c(C)cc(C)nc2c1Cc1ccc(-c2nnc(C3CCNCC3)o2)cc1"
assay_target = "U2OS"
measure_name = "Population Apoptotic (%)"
experimental_value = "77%"

[[record]]
compound = "C[C@H](NC(=O)CNC(=O)c1cccc(Cl)c1)c1ccccc1"
assay_target = "U2OS"
measure_name = "Population Apoptotic (%)"
experimental_value = "66%"

[[record]]
compound = "Cc1c(Cc2ccc3ccccc3n2)c2cc(F)ccc2n1CC(=O)O [TIMAPIPRANT]"
assay_target = "U2OS"
measure_name = "Population Apoptotic (%)"
experimental_value = "68%"

[[record]]
compound = "Cc1cc(-c2ccc3c(c2)CC[C@H]3N2CC3(CCN(C(=O)Cc4cn5cc(C)sc5n4)CC3)C2)ncn1 [PF-5190457]"
assay_target = "U2OS"
measure_name = "Population Apoptotic (%)"
experimental_value = "71%"


* * *

Tested on: HEK-293T
Test Protocol: Multiplex assay against HEK293T
Type: toxicity, cell-based
Test Settings: human, 12 h, 1 µM, compound concentration 1 uM, replicate 2
Measure Name: Population Fragmented Nuclei (%)

[[record]]
molecule = "CCCCC[C@H](O)/C=C/[C@H]1[C@H](O)CC(=O)[C@@H]1CCCCCCC(=O)O"
experimental_value = 6

[[record]]
molecule = "COc1cc2nc(N3CCN(C(=O)c4ccco4)CC3)nc(N)c2cc1OC.Cl [PRAZOSIN HYDROCHLORIDE]"
experimental_value = 6

[[record]]
molecule = "Cc1sc2c(c1C)C(c1ccc(Cl)cc1)=N[C@H](CC(=O)OC(C)(C)C)c1nnc(C)n1-2"
experimental_value = 6

[[record]]
molecule = "CN(C)C/C=C/C(=O)Nc1ccc(C(=O)N2CCCC(Nc3ncc(Cl)c(-c4c[nH]c5ccccc45)n3)C2)cc1 (configuration not stated)"
experimental_value = 6

[[record]]
molecule = "O=C(Nc1cc(-c2ccccc2)nn1-c1ccccc1F)c1ccc([N+](=O)[O-])cc1"
experimental_value = 6

[[record]]
molecule = "C[C@H](NC(=O)CNC(=O)c1cccc(Cl)c1)c1ccccc1"
experimental_value = 6

[[record]]
molecule = "CC(C)(C)c1ccc(CSc2cnn(C(C)(C)C)c(=O)c2Cl)cc1"
experimental_value = 6


* * *

Test system: HEK-293T
Test Protocol: Multiplex assay against HEK293T
Assay type: toxicity, cell-based
Test Settings: human, 24 h, 1 µM, compound concentration 1 uM, replicate 1
Population Tubulin-Different-Phenotype (%) overview
Measure Name: Population Tubulin-Different-Phenotype (%)

[[record]]
cpd_smiles = "S=C(NCCCc1c[nH]cn1)NCCCN(Cc1ccc(Cl)c(Cl)c1)c1ccc(Br)cn1"
assay_target = "HEK-293T"
experimental_value = "32%"

[[record]]
cpd_smiles = "Nc1nc(CC(=O)Nc2ccc(CCNC[C@H](O)c3ccccc3)cc2)cs1"
assay_target = "HEK-293T"
experimental_value = "14%"

[[record]]
cpd_smiles = "COc1c(Nc2ccc(S(C)(=O)=O)nc2C)ncnc1OC1CCN(C(=O)OC(C)C)CC1"
assay_target = "HEK-293T"
experimental_value = "16%"

[[record]]
cpd_smiles = "CCCCC[C@H](O)/C=C/[C@H]1[C@H](O)CC(=O)[C@@H]1CCCCCCC(=O)O"
assay_target = "HEK-293T"
experimental_value = "15%"

[[record]]
cpd_smiles = "O=C(Nc1cc(-c2ccccc2)nn1-c1ccccc1F)c1ccc([N+](=O)[O-])cc1"
assay_target = "HEK-293T"
experimental_value = "17%"

[[record]]
cpd_smiles = "Cc1cc(NC(=O)NCCN2CCC(O)(Cc3ccccc3)CC2)c2ccccc2n1"
assay_target = "HEK-293T"
experimental_value = "19%"

[[record]]
cpd_smiles = "C=CCN1C[C@H](C(=O)N(CCCN(C)C)C(=O)NCC)C[C@@H]2c3cccc4[nH]cc(c34)C[C@H]21"
assay_target = "HEK-293T"
experimental_value = "20%"

[[record]]
cpd_smiles = "Cc1cc(-c2ccc3c(c2)CC[C@H]3N2CC3(CCN(C(=O)Cc4cn5cc(C)sc5n4)CC3)C2)ncn1"
assay_target = "HEK-293T"
experimental_value = "16%"

[[record]]
cpd_smiles = "CN1CCC(C(=O)c2cccc(NC(=O)c3c(F)cc(F)cc3F)n2)CC1"
assay_target = "HEK-293T"
experimental_value = "20%"

[[record]]
cpd_smiles = "COc1ccc2c(c1OCc1ccccc1)C[C@@H](C(=O)O)N(C(=O)C(c1ccccc1)c1ccccc1)C2"
assay_target = "HEK-293T"
experimental_value = "15%"


* * *

Test system: Fibroblast
Test Protocol: Multiplex assay against human fibroblast
Format: toxicity, cell-based
Test Settings: 12 h, 10 µM, compound concentration 10 uM, replicate 2
Measure Name: Population Hoechst High Intensity Objects (%)

[[record]]
compound = "Cc1cc(NC(=O)NCCN2CCC(O)(Cc3ccccc3)CC2)c2ccccc2n1 [PALOSURAN]"
experimental_value = 6

[[record]]
compound = "CCn1c(-c2nc3cc(C(=O)N4CCCC(N)C4)ccc3n2C)cc2ccccc21.Cl (stereo unspecified)"
experimental_value = 3

[[record]]
compound = "CC(F)(F)CN1CCOc2c(nn(-c3ccccc3Cl)c2-c2ccc(Cl)cc2)C1=O"
experimental_value = 5

[[record]]
compound = "Cc1cc(O)c(-c2ccc([C@@H](C)CN(C)C)cc2)c2c1[nH]c(=O)c1sccc12"
experimental_value = 5

[[record]]
compound = "N[C@](CC1c2ccccc2Oc2ccccc21)(C(=O)O)[C@H]1C[C@@H]1C(=O)O"
experimental_value = 7

[[record]]
compound = "Cn1cc(C(=O)OCC2CCN(CCNS(C)(=O)=O)CC2)c2ccccc21"
experimental_value = 5


* * *

Population Normal (%) overview
System: Fibroblast
Test Protocol: Multiplex assay against human fibroblast
Type: toxicity, cell-based
Test Settings: 12 h, 10 µM, compound concentration 10 uM, replicate 2
Measure Name: Population Normal (%)

[[record]]
cpd_smiles = "C[C@H](NC(=O)CNC(=O)c1cccc(Cl)c1)c1ccccc1"
experimental_value = 98

[[record]]
cpd_smiles = "O=C(Nc1cc(-c2ccccc2)nn1-c1ccccc1F)c1ccc([N+](=O)[O-])cc1"
experimental_value = 93

[[record]]
cpd_smiles = "CN(C)C(=O)Cn1cc(-c2ccc(-c3nnc4ccccn34)cc2)cn1"
experimental_value = 91

[[record]]
cpd_smiles = "COc1cc(C(=O)N2CC[C@@H](O)[C@@H](N)C2)cc2nc(-c3cc4ccccc4n3CC3CC3)n(C)c12.Cl"
experimental_value = 89

[[record]]
cpd_smiles = "Cc1nn(C)c2nc(NNC(=O)Nc3cc(Cl)nc(Cl)c3)cc(C(C)C)c12"
experimental_value = 92

[[record]]
cpd_smiles = "COc1cc(Nc2ncc3c(n2)-c2ccc(Cl)cc2C(c2c(F)cccc2OC)=NC3)ccc1C(=O)O"
experimental_value = 91

[[record]]
cpd_smiles = "O=c1nc2[nH]c3ccccc3nc-2c(=O)[nH]1"
experimental_value = 98

